Value source: paper PMC10700596

- assay summary: in vivo
- Type: in vivo, mice
- condition parameters: male, CD-1, mouse, brain, ip, 10 mg/kg, mice, IP 10 mg/kg, brain, 240 min, individual animals; read-out: Brain concentration, Final (individual sample)
measurement name: concentration at 240 min (ng/g)
Answer in ng/g, number only, no unit symbol.

Short answer for CCc1nc2c(C)nc(C)cc2n1-c1ccc(CCNC(=O)NS(=O)(=O)c2ccc(C)cc2)cc1 [Grapiprant, reference compound] : concentration at 240 min was 0

---

- assay summary: in vivo
- Type: in vivo, mice
- condition parameters: male, CD-1, mouse, plasma, iv, 10 mg/kg, mice, IV 10 mg/kg, plasma, 5 min; read-out: Plasma concentration C (mean)
measurement name: concentration at 5 min

Short answer for O=C([O-])C1CCC2(CC1)CC(Nc1ncnc3[nH]c4c(F)cccc4c13)C2.[Na+] (stereo not shown) : concentration at 5 min was 26200 ng/mL
